Listing of recorded Selectivity ratio Ki α1/α2 ± S.E. by entry.
Tested on: Na,K-ATPase α2β1 isoform complex
Assay Method Text: biochemical
Assay type: biochemical, human
Experimental Context: Kiα1β1/Kiα2β1

Compound: CC1CN(C)CCC(OC2C(O)CC(OC3C(O)CC(OC4CCC5(C)C(CCC6C5CC(O)C5(C)C(C7=CC(=O)OC7)CCC65O)C4)OC3C)OC2C)O1 (centres unmarked)
Selectivity ratio Ki α1/α2 ± S.E.: 6.47
//
Compound: CC1CN(C(CO)C(=O)O)CCC(OC2C(O)CC(OC3C(O)CC(OC4CCC5(C)C(CCC6C5CC(O)C5(C)C(C7=CC(=O)OC7)CCC65O)C4)OC3C)OC2C)O1 (centres unmarked)
Selectivity ratio Ki α1/α2 ± S.E.: 2.18
//
Compound: CC1CN(CC(=O)O)CCC(OC2C(O)CC(OC3C(O)CC(OC4CCC5(C)C(CCC6C5CC(O)C5(C)C(C7=CC(=O)OC7)CCC65O)C4)OC3C)OC2C)O1 (centres unmarked)
Selectivity ratio Ki α1/α2 ± S.E.: 5.1
//
Compound: CC1CN(O)CCC(OC2C(O)CC(OC3C(O)CC(OC4CCC5(C)C(CCC6C5CC(O)C5(C)C(C7=CC(=O)OC7)CCC65O)C4)OC3C)OC2C)O1 (centres unmarked)
Selectivity ratio Ki α1/α2 ± S.E.: 2.32
//
Compound: CC1CN(C(C)C(N)=O)CCC(OC2C(O)CC(OC3C(O)CC(OC4CCC5(C)C(CCC6C5CC(O)C5(C)C(C7=CC(=O)OC7)CCC65O)C4)OC3C)OC2C)O1 (centres unmarked)
Selectivity ratio Ki α1/α2 ± S.E.: 3.46
//
Compound: CC1CN(CCN)CCC(OC2C(O)CC(OC3C(O)CC(OC4CCC5(C)C(CCC6C5CC(O)C5(C)C(C7=CC(=O)OC7)CCC65O)C4)OC3C)OC2C)O1 (centres unmarked)
Selectivity ratio Ki α1/α2 ± S.E.: 4.10
//
Compound: CC1CN(CC(=O)O)CCC(OC2C(O)CC(OC3CCC4(C)C(CCC5C4CC(O)C4(C)C(C6=CC(=O)OC6)CCC54O)C3)OC2C)O1 (centres unmarked)
Selectivity ratio Ki α1/α2 ± S.E.: 2.29
//
Compound: CC1CN(NC(N)=O)CCC(OC2C(O)CC(OC3C(O)CC(OC4CCC5(C)C(CCC6C5CC(O)C5(C)C(C7=CC(=O)OC7)CCC65O)C4)OC3C)OC2C)O1 (centres unmarked)
Selectivity ratio Ki α1/α2 ± S.E.: 4.98
//
Compound: C[C@H]1O[C@@H](O[C@H]2[C@@H](O)C[C@H](O[C@H]3CC[C@@]4(C)[C@H](CC[C@@H]5[C@@H]4C[C@@H](O)[C@]4(C)[C@@H](C6=CC(=O)OC6)CC[C@]54O)C3)O[C@@H]2C)C[C@H](O)[C@@H]1O [Dbis, digoxigenin bis digitoxide, reference compound]
Selectivity ratio Ki α1/α2 ± S.E.: 2.65
//
Compound: CC1CN(C(CO)C(N)=O)CCC(OC2C(O)CC(OC3C(O)CC(OC4CCC5(C)C(CCC6C5CC(O)C5(C)C(C7=CC(=O)OC7)CCC65O)C4)OC3C)OC2C)O1 (centres unmarked)
Selectivity ratio Ki α1/α2 ± S.E.: 1.68
//
Compound: COC(=O)CN1CCC(OC2C(O)CC(OC3C(O)CC(OC4CCC5(C)C(CCC6C5CC(O)C5(C)C(C7=CC(=O)OC7)CCC65O)C4)OC3C)OC2C)OC(C)C1 (centres unmarked)
Selectivity ratio Ki α1/α2 ± S.E.: 4.22
//
Compound: CCN1CCC(OC2C(O)CC(OC3C(O)CC(OC4CCC5(C)C(CCC6C5CC(O)C5(C)C(C7=CC(=O)OC7)CCC65O)C4)OC3C)OC2C)OC(C)C1 (centres unmarked)
Selectivity ratio Ki α1/α2 ± S.E.: 2.88
//
Compound: CC1CN(CCC(N)=O)CCC(OC2C(O)CC(OC3C(O)CC(OC4CCC5(C)C(CCC6C5CC(O)C5(C)C(C7=CC(=O)OC7)CCC65O)C4)OC3C)OC2C)O1 (centres unmarked)
Selectivity ratio Ki α1/α2 ± S.E.: 5.28
//
Compound: CC1CN(CC(F)(F)F)CCC(OC2C(O)CC(OC3C(O)CC(OC4CCC5(C)C(CCC6C5CC(O)C5(C)C(C7=CC(=O)OC7)CCC65O)C4)OC3C)OC2C)O1 (centres unmarked)
Selectivity ratio Ki α1/α2 ± S.E.: 4.50
